These measurements were taken from patent US10028992B2.

- System: α7 integrin promoter
- Experiment summary: muscle cell-based assay: α7βgal+/− myoblasts/myotubes, LacZ reporter, β-galactosidase cleavage of FDG
- Parameters: species or system mouse; scale not given here
- Condition info: Myoblasts, 10 uM
Categories are assigned from the measured Results in α7+/− β-galactosidase assay using these intervals: low (below -0.08), middle (-0.08 to below 0.08), high (0.08 or more)

Which category fits this record: C=CCc1c(C)nc(-c2ccccc2)nc1N/N=C(\C)c1ccc(N)cc1 [drawing 662]
high

Which category fits this record: CN1CCN(c2ccccc2/C=C2\C(=O)Nc3ccccc32)CC1 [drawing 671]
low

Which category fits this record: O=C1Nc2ccccc2/C1=C\c1ccnc2ccccc12 [drawing 526]
high
